Just for reference, patent US20230061973A1 is where these values come from.

Form field: S/N at plasma conc. 3.20 ng/mL (one value per entry).
# measurement target: T1, exemplary TAT frataxin fusion molecule (HIV-1, UniProt Q16595 1-210)
# T1 construct: in the bridging assays biotinylated and sulfotagged forms were used; also called TAT-FXN fusion molecule; TAT FXN fusion molecule
# T1 sequence: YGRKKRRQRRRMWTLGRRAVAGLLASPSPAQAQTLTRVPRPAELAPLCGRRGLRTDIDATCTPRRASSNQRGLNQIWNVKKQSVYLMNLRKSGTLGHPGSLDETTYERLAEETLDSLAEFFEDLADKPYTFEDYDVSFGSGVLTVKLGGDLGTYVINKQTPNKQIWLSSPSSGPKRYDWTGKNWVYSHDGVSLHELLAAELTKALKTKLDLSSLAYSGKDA
# assay details: PK sandwich ELISA in human plasma, antibody as capture, HRP anti-frataxin mAb detection

These solved cases illustrate the format of a correct answer.
>>> measurement("antibody 10-12 (antibody, V domains shown, Rabbit monoclonal) VH: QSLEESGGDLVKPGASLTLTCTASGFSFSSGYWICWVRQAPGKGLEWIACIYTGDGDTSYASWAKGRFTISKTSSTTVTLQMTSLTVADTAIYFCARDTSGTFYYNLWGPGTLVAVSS VL: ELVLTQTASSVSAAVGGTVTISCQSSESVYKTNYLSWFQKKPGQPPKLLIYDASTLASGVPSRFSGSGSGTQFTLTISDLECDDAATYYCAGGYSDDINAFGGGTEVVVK")
5.1
>>> measurement("antibody 10-1 (antibody, V domains shown, Rabbit monoclonal) VH: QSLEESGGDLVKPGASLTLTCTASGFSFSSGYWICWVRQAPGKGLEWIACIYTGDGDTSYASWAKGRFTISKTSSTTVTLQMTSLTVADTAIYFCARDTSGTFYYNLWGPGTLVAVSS VL: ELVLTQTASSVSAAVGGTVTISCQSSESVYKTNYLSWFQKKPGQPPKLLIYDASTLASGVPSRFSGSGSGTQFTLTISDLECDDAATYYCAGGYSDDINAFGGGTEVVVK")
5

Okay, now this binder:
[ask] Sample antibody 10-9 (antibody, V domains shown, Rabbit monoclonal) VH: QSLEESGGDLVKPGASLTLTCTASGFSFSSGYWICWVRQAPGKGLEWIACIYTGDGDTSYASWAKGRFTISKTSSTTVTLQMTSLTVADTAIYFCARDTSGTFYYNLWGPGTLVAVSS VL: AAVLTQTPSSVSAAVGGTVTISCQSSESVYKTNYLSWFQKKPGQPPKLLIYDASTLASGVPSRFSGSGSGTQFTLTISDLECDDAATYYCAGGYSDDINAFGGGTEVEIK — what was its S/N at plasma conc. 3.20 ng/mL?
[reply] 4.9
